Every entry's value here was drawn from ChEMBL document CHEMBL1134195.

- method_notes: Inhibitory activity against translocase (Mra Y) obtained from bacteria.
observable: IC50 (µM)

{"line_notation": "NC[C@H]1O[C@@H](OC[C@H]2O[C@@H](n3ccc(=O)[nH]c3=O)[C@H](O)[C@@H]2O)C[C@@H]1O", "obs_value": 115}

I: NC[C@H]1O[C@@H](OC[C@@H]2CC[C@H](n3ccc(=O)[nH]c3=O)O2)[C@H](O)[C@@H]1O
II: NC[C@H]1O[C@@H](OC[C@H]2O[C@@H](n3ccc(=O)[nH]c3=O)[C@H](O)[C@@H]2O)[C@H](O)[C@@H]1O
III: NC[C@H]1O[C@@H](OC[C@@H]2C[C@@H](O)[C@H](n3ccc(=O)[nH]c3=O)O2)[C@H](O)[C@@H]1O
IV: NC[C@H]1O[C@@H](O[C@@H](CO)[C@H]2O[C@@H](n3ccc(=O)[nH]c3=O)[C@H](O)[C@@H]2O)[C@H](O)[C@@H]1O
V: NC[C@H]1O[C@@H](OC[C@H]2O[C@@H](n3ccc(=O)[nH]c3=O)C[C@@H]2O)[C@H](O)[C@@H]1O
Query: Could you please order the items by IC50, going from the lowest number to the highest? Lab note: record answer as labels in requested order.
Result: IV, III, II, V, I
(IV: 5 µM, III: 10 µM, II: 50 µM, V: 80 µM, I: 120 µM)
